The values you see were collected from PubChem BioAssay.

# Tested System: Voltage-gated potassium channel subunit beta-2 (Rattus norvegicus) (UniProt P62483)
# Sequence (P62483 whole entry, looked up): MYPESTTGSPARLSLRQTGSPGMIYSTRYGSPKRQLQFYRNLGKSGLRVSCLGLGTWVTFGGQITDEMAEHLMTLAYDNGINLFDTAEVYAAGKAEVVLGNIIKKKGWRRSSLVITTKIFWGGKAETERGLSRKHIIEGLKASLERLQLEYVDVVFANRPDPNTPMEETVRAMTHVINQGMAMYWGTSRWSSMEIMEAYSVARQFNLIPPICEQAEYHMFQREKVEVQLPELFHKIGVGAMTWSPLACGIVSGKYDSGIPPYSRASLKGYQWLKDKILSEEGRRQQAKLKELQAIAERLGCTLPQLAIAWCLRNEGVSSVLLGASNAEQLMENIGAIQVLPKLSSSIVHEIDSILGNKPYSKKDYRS
# Test Description: KvBeta enzyme negative modulators, primary screen, biochemical, NADPH fluorescence (AID 622);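 note: slope of raw intensity against log time taken from 70 to 1610 s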
# Test Parameters: recombinant KvBeta, 4-cyanobenzaldehyde reduction, at 10 µM, stronger effect = higher value
Here the recorded fluorescence slope is given for each entry.

Compound: OCCNC1=NCCN1
fluorescence slope: -0.523
//
Compound: CCOc1cccc(-c2nnc3sc(-c4cccs4)nn23)c1
fluorescence slope: -0.456
//
Compound: Cc1ccc2[nH]c3c(N4CCN(Cc5ccc6c(c5)OCO6)CC4)ncnc3c2c1
fluorescence slope: -0.396
//
Compound: Cn1c(=O)[nH]c(=O)c2c1nc(N(CCO)Cc1ccccc1)n2Cc1ccccc1Cl
fluorescence slope: -0.438
//
Compound: CCOC(=O)c1ccc(N2CC(O)=C(c3nc4ccccc4c(=O)[nH]3)C2=N)cc1
fluorescence slope: -0.208
//
Compound: N=c1nc(N2CCCCC2)cc(N)n1O
fluorescence slope: -0.46
//
Compound: CCOC(=O)C(C#N)C(Cc1ccccc1)c1ccco1 (stereo not drawn)
fluorescence slope: -0.488
//
Compound: N#CC12CCCCC1CC1CCCCC1(C#N)N2Cc1cccnc1 (stereo not drawn)
fluorescence slope: -0.557
//
Compound: Cc1c(NC(=O)C(CC(=O)O)NCc2ccco2)c(=O)n(-c2ccccc2)n1C (stereo not drawn)
fluorescence slope: -0.44
//
Compound: CC1=C(C)C(=O)C(CCCCC#CCCCC#CCO)=C(C)C1=O
fluorescence slope: -0.452
//
Compound: Cc1cc(C)n(C(=O)CN2C(=O)CCC2=O)n1
fluorescence slope: -0.249
//
Compound: CC(=O)[C@@]1(O)CC[C@H]2[C@@H]3CCC4=CC(=O)CC[C@]4(C)[C@H]3[C@@H](O)C[C@@]21C
fluorescence slope: -0.495
//
Compound: CC(CCc1ccccc1)NCC(O)c1ccc(O)c(C(N)=O)c1 (stereo not drawn)
fluorescence slope: -0.442
//
Compound: CCN(CCCc1ccccc1)CCCc1ccccc1
fluorescence slope: -0.514
//
Compound: CCCCCCCCCCCCCCCC(O)C(N)CO (stereo not drawn)
fluorescence slope: -0.485
//
Compound: CCC1(C)Cc2c(sc3c2c(=O)n(C)c2nnc(SCC(=O)c4ccc(Cl)cc4)n32)CO1 (stereo not drawn)
fluorescence slope: -0.37
//
Compound: Cc1ccc(OCC(=O)N2CCC(N3CCCCCC3)CC2)cc1
fluorescence slope: -0.391
//
Compound: CCN(CC)CCN1C(=O)C(=O)/C(=C(/O)c2ccc(C)cc2)C1c1cccnc1 (stereo not drawn)
fluorescence slope: -0.426
//
Compound: CCOC(=O)C1CCN(c2nc3ccccc3nc2C(C#N)C(=O)NCCc2ccccc2)CC1 (stereo not drawn)
fluorescence slope: -0.426
//
Compound: COc1ccc(-c2cc(=O)[nH]c(=O)[nH]2)cc1
fluorescence slope: -0.466
//
Compound: COc1cccc(/C(O)=C2/C(=O)C(=O)N(CCCN(C)C)C2c2cccc(Cl)c2)c1 (stereo not drawn)
fluorescence slope: -0.436
//
Compound: CCN(CC)C(=O)CSC1=C(C#N)C(c2cccs2)C=C(C)N1 (stereo not drawn)
fluorescence slope: -0.405
//
Compound: CC(=O)c1c(N)nc2n(c1=O)CCCCC2
fluorescence slope: -0.392
//
Compound: Cc1cn2c(-c3ccncc3)nnc2s1
fluorescence slope: -0.491
//
Compound: C[C@]12CC[C@@H]3c4ccc(O)cc4C(=O)C[C@H]3[C@@H]1CC[C@@H]2O
fluorescence slope: -0.47
//
Compound: Cc1c(CCC#N)c(N2CCCCC2)n2c(nc3ccccc32)c1C#N
fluorescence slope: -0.341
//
Compound: CC(C)N1CCc2c(sc(N)c2C#N)C1
fluorescence slope: -0.418
//
Compound: CCSc1nc(N)c(C#N)c(-c2ccccc2Cl)c1C#N
fluorescence slope: -0.473
